Data credit: ChEMBL document CHEMBL2046274

Test: Cytotoxicity against human HepG2 cells after 24 hrs by LDH release assay
Type: cell-based
Reported metric: CC50 at 24 h

Request the reported CC50 at 24 h associated with O=[N+]([O-])c1ccc(-n2nc(-c3ccc(Cl)cc3)c3c2-c2ccccc2S(=O)(=O)N3)cc1
> 100 µg/mL

* * *

Molecular target: Quinolone resistance protein NorA (Staphylococcus aureus, UniProt P0A0J7, A116E)
Experiment: Inhibition of norA-mediated EtBr efflux in Staphylococcus aureus SA1199B overexpressing norA and expressing A116E GrlA mutation by fluorometry
Reported metric: pIC50
Value format note: pIC50 is -log10 of concentration (mol/L); just state the number.

Please look up its pIC50: O=[N+]([O-])c1ccc(-n2nc(-c3ccc(Cl)cc3)c3c2-c2ccccc2S(=O)(=O)N3)cc1
5.00
